Tested on: Plasmodium berghei
Assay: Screen against P. berghei liver stage (PbLuc), transformed with Luciferase, at 10uM
Format: functional, HepG2
Settings: tested at 10 uM
Among all 69,000 compounds or so, about 8,600 (12%) showed an effect of 50% or more. Shown is part of a subset that was picked to be rich in strong results.
Measured Attribute: INHIBITION

CNC(=O)C1CCCCN1C(=O)CCn1cnc2sccc2c1=O (centres undefined) | 52.6%
CC1CCCCN1C(=O)CCn1cnc2sccc2c1=O (centres undefined) | 42.7%
CCN(CCc1ccccc1)Cn1nc(C)c2c(C)onc2c1=O | 56.1%

Now consider a different compound.
Query (compound): COCCn1cnc2c(F)cc(Br)cc2c1=O ; field requested: INHIBITION 47.4%
